- TARGET SYSTEM: AChE-induced Aβ (1-40) aggregation (human recombinant AChE) (Homo sapiens, UniProt P22303)
- Construct: purchased Sigma-Aldrich
- Sequence (P22303 32-614): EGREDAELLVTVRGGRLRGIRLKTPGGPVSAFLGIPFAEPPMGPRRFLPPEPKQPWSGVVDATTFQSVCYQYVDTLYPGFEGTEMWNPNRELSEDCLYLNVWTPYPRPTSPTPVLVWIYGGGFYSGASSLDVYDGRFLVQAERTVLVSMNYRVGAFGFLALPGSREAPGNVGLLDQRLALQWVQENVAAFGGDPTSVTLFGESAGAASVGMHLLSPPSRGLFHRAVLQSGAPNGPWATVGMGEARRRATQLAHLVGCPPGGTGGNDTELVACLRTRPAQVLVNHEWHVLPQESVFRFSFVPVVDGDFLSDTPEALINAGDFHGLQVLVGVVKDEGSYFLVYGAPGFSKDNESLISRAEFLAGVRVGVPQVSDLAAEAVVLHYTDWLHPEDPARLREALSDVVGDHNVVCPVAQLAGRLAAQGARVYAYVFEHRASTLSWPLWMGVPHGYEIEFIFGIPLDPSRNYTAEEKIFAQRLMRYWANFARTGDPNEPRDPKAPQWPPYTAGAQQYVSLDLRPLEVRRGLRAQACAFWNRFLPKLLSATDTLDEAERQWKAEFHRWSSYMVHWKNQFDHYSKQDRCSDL
- MEASUREMENT NOTES: Inhibition of AChE-induced Aβ aggregation, thioflavin T fluorescence
- Format: biochemical
- CONDITION CONTEXT: inhibitor 400 μM; Aβ 230 μM, AChE 2.3 μM, 48 h; read-out: Inhibition (%) 400 μM ± SEM
Where a name gives a salt, the structure may show the parent alone.
Provide the recorded inhibition at 400 µM for the entries that follow.
Write the answer as a number in %, unit excluded.

Look up inhibition at 400 µM for this compound: CC[N+](C)(CC)CCC[n+]1c(-c2ccccc2)c2cc(N)ccc2c2ccc(N)cc21 [Propidium iodine, reference compound] 79.2

I have this compound here, CC[C@@]1(c2cccc(O)c2)CCCCN(CCCCCCCCCCN2CCCC[C@@](CC)(c3cccc(O)c3)C2)C1 , and I need its recorded inhibition at 400 µM. 81.8

Suppose we examine the compound CC[C@@]1(c2cccc(O)c2)CCCCN(CCCCCCCCCN2CCCC[C@@](CC)(c3cccc(O)c3)C2)C1 [(A = CH2, n = 9), Hydrochloride] ; what inhibition at 400 µM value has been reported? 91.7

Which inhibition at 400 µM is reported for this compound? CC[C@@]1(c2cccc(O)c2)CCCCN(CCCCCCCCN2CCCC[C@@](CC)(c3cccc(O)c3)C2)C1 0.15

* * *

- TARGET SYSTEM: mice serum BChE (Mus musculus, UniProt Q03311)
- Construct: mice serum was the source of BChE
- Sequence (Q03311 30-603): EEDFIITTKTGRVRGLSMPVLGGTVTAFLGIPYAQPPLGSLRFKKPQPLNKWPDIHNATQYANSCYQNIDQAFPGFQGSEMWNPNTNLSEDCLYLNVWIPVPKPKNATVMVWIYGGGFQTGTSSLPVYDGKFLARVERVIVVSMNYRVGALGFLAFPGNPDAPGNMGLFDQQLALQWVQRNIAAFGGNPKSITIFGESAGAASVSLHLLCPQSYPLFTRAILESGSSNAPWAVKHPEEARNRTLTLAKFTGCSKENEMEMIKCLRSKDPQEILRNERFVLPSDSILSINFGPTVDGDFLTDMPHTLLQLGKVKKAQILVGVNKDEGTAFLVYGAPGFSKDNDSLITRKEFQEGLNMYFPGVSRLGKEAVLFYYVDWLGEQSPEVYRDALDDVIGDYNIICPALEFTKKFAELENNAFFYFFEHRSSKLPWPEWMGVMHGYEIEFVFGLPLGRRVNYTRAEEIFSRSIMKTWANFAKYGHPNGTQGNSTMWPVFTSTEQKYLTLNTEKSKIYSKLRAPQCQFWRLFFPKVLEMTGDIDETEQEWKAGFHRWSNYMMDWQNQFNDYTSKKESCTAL
- MEASUREMENT NOTES: BChE inhibition, Ellman spectrophotometric assay, mice serum
- CONDITION CONTEXT: mean ± SEM, at least three measures; butyrylthiocholine iodide substrate
Counter-ions that a name gives are not always drawn.
Task for the reader: assign each of the following compounds its reported IC50.
Lab book: enter the figure in nM, no units written.

// query IC50 value for entry CC[C@@]1(c2cccc(O)c2)CCCCN(CCCCCCCN2CCCC[C@@](CC)(c3cccc(O)c3)C2)C1 102

Would you kindly share the measured IC50 for CC[C@@]1(c2cccc(O)c2)CCCCN(CCCCCCCCCCCN2CCCC[C@@](CC)(c3cccc(O)c3)C2)C1 ? 74

For the compound CC[C@@]1(c2cccc(O)c2)CCCCN(CCCCCCN2CCCC[C@@](CC)(c3cccc(O)c3)C2)C1 , what IC50 is on record? 119

What IC50 value was documented for this compound, CC[C@@]1(c2cccc(O)c2)CCCCN(CCN2CCCC[C@@](CC)(c3cccc(O)c3)C2)C1 ? 125

Recorded IC50 of CC[C@@]1(c2cccc(O)c2)CCCCN(CCCCCCCCN2CCCC[C@@](CC)(c3cccc(O)c3)C2)C1 , please. 63

Suppose we examine the compound CC[C@@]1(c2cccc(O)c2)CCCCN(CCCCCCCCCCN2CCCC[C@@](CC)(c3cccc(O)c3)C2)C1 ; what IC50 value has been reported? 17

Using the record for CC[C@@]1(c2cccc(O)c2)CCCCN(CCCCCCCCCCCCN2CCCC[C@@](CC)(c3cccc(O)c3)C2)C1 , report its IC50. 100

Data request, read-out IC50, for CCC1(c2cccc(O)c2)CCCCN(C)C1 (single isomer, unassigned; (-)) [(−)-meptazinol] 15000

Field request: IC50 | item: CC[C@@]1(c2cccc(O)c2)CCCCN(CCCN2CCCC[C@@](CC)(c3cccc(O)c3)C2)C1 132

Consider the compound CC[C@@]1(c2cccc(O)c2)CCCCN(CCCCCN2CCCC[C@@](CC)(c3cccc(O)c3)C2)C1 and give its measured IC50. 192

Which IC50 is listed for CC[C@@]1(c2cccc(O)c2)CCCCN(CCCCN2CCCC[C@@](CC)(c3cccc(O)c3)C2)C1 [(A = CH2, n = 4), Hydrochloride] ? 104

Would you mind telling me what IC50 value was observed for CC[C@@]1(c2cccc(O)c2)CCCCN(CCCCCCCCCN2CCCC[C@@](CC)(c3cccc(O)c3)C2)C1 [(A = CH2, n = 9), Hydrochloride] ? 10

* * *

- TARGET SYSTEM: mice brain AChE (Mus musculus, UniProt P21836)
- Sequence (P21836 32-614): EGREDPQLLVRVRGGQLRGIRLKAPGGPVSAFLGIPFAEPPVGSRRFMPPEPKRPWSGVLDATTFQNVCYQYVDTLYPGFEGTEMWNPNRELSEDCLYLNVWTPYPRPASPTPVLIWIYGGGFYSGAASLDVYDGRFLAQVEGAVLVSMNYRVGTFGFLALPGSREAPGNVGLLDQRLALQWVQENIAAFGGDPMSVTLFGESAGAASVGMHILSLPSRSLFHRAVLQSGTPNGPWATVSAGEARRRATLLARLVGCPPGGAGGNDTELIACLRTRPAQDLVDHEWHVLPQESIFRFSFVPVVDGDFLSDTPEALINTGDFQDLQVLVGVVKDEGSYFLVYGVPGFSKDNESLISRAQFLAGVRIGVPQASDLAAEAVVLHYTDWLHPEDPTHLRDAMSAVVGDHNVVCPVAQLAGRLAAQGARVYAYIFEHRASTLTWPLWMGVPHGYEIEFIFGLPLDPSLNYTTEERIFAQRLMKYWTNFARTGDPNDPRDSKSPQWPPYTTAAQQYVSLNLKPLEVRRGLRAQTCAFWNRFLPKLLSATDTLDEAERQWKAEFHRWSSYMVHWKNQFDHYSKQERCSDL
Where a name gives a salt, the structure may show the parent alone.
PARAMETER: IC50
Give the number first and the unit second.

What value of IC50 has been reported for the following compound? CC[C@@]1(c2cccc(O)c2)CCCCN(CCCCN2CCCC[C@@](CC)(c3cccc(O)c3)C2)C1 [(A = CH2, n = 4), Hydrochloride] 21400 nM

Quick one: IC50 for CCC1(c2cccc(O)c2)CCCCN(C)C1 (single isomer, unassigned; (-)) [(−)-meptazinol] ? 41000 nM

I have this compound here, CC[C@@]1(c2cccc(O)c2)CCCCN(CCN2CCCC[C@@](CC)(c3cccc(O)c3)C2)C1 [(A = CH2, n = 2)] , and I need its recorded IC50. 43000 nM

Reported IC50 for CC[C@@]1(c2cccc(O)c2)CCCCN(CCCCCCN2CCCC[C@@](CC)(c3cccc(O)c3)C2)C1 [(A = CH2, n = 6)] : what is it? 1220 nM

// lookup IC50 for CC[C@@]1(c2cccc(O)c2)CCCCN(CCCCCN2CCCC[C@@](CC)(c3cccc(O)c3)C2)C1 [(A = CH2, n = 5)] 4000 nM

Look at this compound and give its reported IC50. CC[C@@]1(c2cccc(O)c2)CCCCN(CCCCCCCCCN2CCCC[C@@](CC)(c3cccc(O)c3)C2)C1 [(A = CH2, n = 9), Hydrochloride] 3.9 nM

What does the data say about its IC50? Entry: CC[C@@]1(c2cccc(O)c2)CCCCN(CCCCCCCCN2CCCC[C@@](CC)(c3cccc(O)c3)C2)C1 [(A = CH2, n = 8)] 79 nM

Look up IC50: CC[C@@]1(c2cccc(O)c2)CCCCN(CCCCCCCCCCN2CCCC[C@@](CC)(c3cccc(O)c3)C2)C1 [(A = CH2, n = 10)] 9.5 nM

Entry CC[C@@]1(c2cccc(O)c2)CCCCN(CCCCCCCCCCCCN2CCCC[C@@](CC)(c3cccc(O)c3)C2)C1 [(A = CH2, n = 12)] has what IC50? 42 nM

So what's the measured IC50 for this one? CC[C@@]1(c2cccc(O)c2)CCCCN(CCCN2CCCC[C@@](CC)(c3cccc(O)c3)C2)C1 [(A = CH2, n = 3)] 42000 nM

Item CC[C@@]1(c2cccc(O)c2)CCCCN(CCCCCCCN2CCCC[C@@](CC)(c3cccc(O)c3)C2)C1 [(A = CH2, n = 7)] has what recorded IC50? 270 nM

// lookup IC50 for CC[C@@]1(c2cccc(O)c2)CCCCN(CCCCCCCCCCCN2CCCC[C@@](CC)(c3cccc(O)c3)C2)C1 [(A = CH2, n = 11)] 24 nM

* * *

- TARGET SYSTEM: mice brain AChE (Mus musculus, UniProt P21836)
- Construct: Mice brain homogenate prepared in saline was used as a source of AChE; from tissue; host or cells: mouse brain homogenate
- MEASUREMENT NOTES: AChE inhibition, Ellman spectrophotometric assay, mice brain homogenate
- Type: biochemical
- CONDITION CONTEXT: mice serum BChE versus mice brain AChE IC50
Structures can show the parent of a compound that is named as a salt.
Exercise: state measured AChE selectivity for each of the molecules provided.
API doc: respond with a numeric literal and nothing else, no unit.

Give the measured AChE selectivity of CC[C@@]1(c2cccc(O)c2)CCCCN(CCCCCCN2CCCC[C@@](CC)(c3cccc(O)c3)C2)C1 [(A = CH2, n = 6)] . 0.098

Value lookup for AChE selectivity; key = CC[C@@]1(c2cccc(O)c2)CCCCN(CCCCCCCCCCCCN2CCCC[C@@](CC)(c3cccc(O)c3)C2)C1 [(A = CH2, n = 12)] 2.4

Consider the molecule CC[C@@]1(c2cccc(O)c2)CCCCN(CCCCCCCCCN2CCCC[C@@](CC)(c3cccc(O)c3)C2)C1 [(A = CH2, n = 9), Hydrochloride] and give its measured AChE selectivity. 2.6
